Assay: growth inhibition of DIPG cells – cell-based, MIPE4.0 library, CellTiter-Glo luminescence, qHTS (AID 1347066);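 note: cells exposed to compound for 48 hours before readout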
Details: SU-DIPG-VI viability, CellTiter-Glo ATP luminescence
Inconclusive results are not listed. The source made the active and inactive calls. No cut-off is given here; in the data, nearly all actives have AC50 up to about 30 µM.
Allowed answers: active, inactive

Lookup: Check the results log: what was the call for O=C(Cc1ccc(-c2ccc(OCCN3CCOCC3)cc2)cn1)NCc1ccccc1 ?
Found: active

Lookup: What about C=C1C(=O)OC(CCCCCCCC)C1C(=O)O (centres undefined) ?
Found: inactive

Lookup: How about NC(=NCCCCCCN=C(N)N=C(N)Nc1ccc(Cl)cc1)N=C(N)Nc1ccc(Cl)cc1 ?
Found: active

Lookup: CN(C)c1nc(Cc2ccc(NC(=O)c3ccc4ccccc4c3)cc2)nc(Cl)c1CC(=O)O ?
Found: inactive

Lookup: Also check NC(CO)(CO)CCc1ccc(Sc2cccc(OCc3ccccc3)c2)cc1Cl
Found: active

Lookup: Would you kindly repeat that for CS(=O)(=O)c1cccc(CNc2nc(Nc3ccc4c(c3)CCC(=O)N4)ncc2C(F)(F)F)c1 ?
Found: active

Lookup: Then CCN1CCN(CC(=O)Nc2ccc(-c3cccc4c(=O)cc(N5CCOCC5)oc34)c3sc4ccccc4c23)CC1 ?
Found: active

Lookup: Entry COC(=O)c1ccc2c(C(=Nc3ccc(N(C)C(=O)CN4CCN(C)CC4)cc3)c3ccccc3)c(O)[nH]c2c1 please
Found: inactive

Lookup: Request: CC(=O)Nc1cccc(-n2c(=O)n(C3CC3)c(=O)c3c(Nc4ccc(I)cc4F)n(C)c(=O)c(C)c32)c1
Found: inactive

Lookup: Same for COC[C@H](c1ccc(C(F)(F)F)cc1)N1CCN(C2(C)CCN(C(=O)c3c(C)ncnc3C)CC2)C[C@H]1C
Found: inactive

Lookup: Ok, now CC(C(C)N1CC(=O)NC(=O)C1)N1CC(=O)NC(=O)C1 (centres undefined)
Found: inactive

Lookup: Lookup CCn1c(=O)c2c(nc(/C=C/c3ccc(OC)c(OC)c3)n2C)n(CC)c1=O
Found: inactive

Lookup: Note, next up: CNC(=O)c1ccc(Nc2cc(Nc3ccccc3S(=O)(=O)C(C)C)c3cc[nH]c3n2)nc1
Found: active

Lookup: What do you get for C[C@](Cc1c[nH]c2ccccc12)(NC(=O)OC1C2CC3CC(C2)CC1C3)C(=O)NC[C@H](NC(=O)CCC(=O)O)c1ccccc1 (some centres undefined) ?
Found: inactive

Lookup: What about this compound? NC(=O)c1ccc(I)c([N+](=O)[O-])c1
Found: inactive

Lookup: And then CCC(=O)O[C@]1(C(=O)CO)CC[C@H]2[C@@H]3CCC4=CC(=O)CC[C@]4(C)[C@H]3CC[C@@]21C , what is it?
Found: inactive

Lookup: Another compound: CC(C)CNc1ccnc(NCc2csc(-c3ccccc3)n2)n1
Found: active

Lookup: Moving on to C[C@]1(c2nc3c(C(N)=O)cccc3[nH]2)CCCN1
Found: inactive

Lookup: And then CCN(CC)CCNC(=O)c1ccc2nc(-c3ccccc3)c(-c3ccc(CN4CCC(n5c(=O)[nH]c6ccccc65)CC4)cc3)nc2c1 , what is it?
Found: active

###

Test: viability loss in pontine glioma line – cell-based, SU-DIPG-XXV, MIPE5.0, CellTiter-Glo, qHTS, dose response (AID 1347065);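 note: cells exposed to compound for 48 hours before ATP readout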
Settings: CellTiter-Glo ATP luminescence
Results filed as inconclusive are left out. The source made the active and inactive calls. Cut-off not given; nearly all actives show AC50 up to about 26 µM.
Outcomes you can answer with include only these: active, inactive

Lookup: What outcome does the record of this test show for Cc1cc(C)cc(NC(=O)Cc2ccc(OC(C)(C)C(=O)O)cc2)c1 ?
Found: inactive

Lookup: Same for Cc1ccc(C(=O)OCc2ccc([C@@H](CN)C(=O)Nc3ccc4cnccc4c3)cc2)c(C)c1
Found: active

Lookup: Now give it for COc1cccc(-c2c(C)n(Cc3c(F)cccc3C(F)(F)F)c(=O)n(C[C@H](NCCCC(=O)O)c3ccccc3)c2=O)c1F too.
Found: inactive

Lookup: How about CS[C@H]1SC[C@@H]2C(=O)N(C)[C@H](C(C)C)C(=O)OC[C@H](NC(=O)c3cnc4ccccc4n3)C(=O)N[C@H](C)C(=O)N(C)[C@H]1C(=O)N(C)[C@H](C(C)C)C(=O)OC[C@H](NC(=O)c1cnc3ccccc3n1)C(=O)N[C@H](C)C(=O)N2C ?
Found: active

Lookup: Subsequent entry: CCc1nc(C(N)=O)c(Nc2ccc(N3CCC(N4CCN(C)CC4)CC3)c(OC)c2)nc1NC1CCOCC1
Found: active

Lookup: Next up: COc1ccc2c(c1)CC[C@@H](CN(C)CC(=O)O)[C@H]2c1ccccc1
Found: inactive

Lookup: Next: O=C(Cc1ccccc1)Nc1nnc(CCSCCc2nnc(NC(=O)Cc3ccccc3)s2)s1
Found: active

Lookup: What about Cc1cnc(Nc2ccc(F)cc2Cl)nc1-c1c[nH]c(C(=O)NC(CO)c2cccc(Cl)c2)c1 (stereo unspecified) ?
Found: active

Lookup: Proceed to COc1nc(-c2ccc3c(c2)OCO3)n(-c2ccc(NC(=O)CSc3ccccc3)cc2)n1
Found: inactive

Lookup: Try the compound C=C1C(=O)OC(CCCCCCCC)C1C(=O)O (stereo unspecified)
Found: inactive

Lookup: Now give it for Cc1ccc(S(=O)(=O)Nc2cc(-c3ccc(C#N)s3)ccc2C)cc1 too.
Found: active

Lookup: Same lookup for COc1cccc2c1c(O)c(C(=O)N(C)c1ccc(C(F)(F)F)cc1)c(=O)n2C , please.
Found: inactive

Lookup: Also, C[C@@H]1CC2C3C[C@H](F)C4=CC(=O)C=C[C@]4(C)[C@@]3(F)[C@@H](O)C[C@]2(C)[C@@]1(OC(=O)c1ccco1)C(=O)SCF (stereo partly specified) please.
Found: active

Lookup: One more compound: Cc1c(CN2CCN(S(C)(=O)=O)CC2)sc2c(N3CCOCC3)nc(-c3cnc(N)nc3)nc12
Found: active

Lookup: # iterate: COc1ccc(-c2oc3c(CC=C(C)C)c(O)cc(O)c3c(=O)c2O)cc1
Found: active

Lookup: Query C[C@H]1[C@H](O)O[C@@H]2O[C@@]3(C)CC[C@H]4[C@H](C)CC[C@@H]1[C@@]24OO3 next
Found: active

Lookup: Entry C=CC(=O)N1CC(N2CCN(C(=O)CNc3cc(C4(C)CC4)c(Cl)cc3O)CC2)C1 please
Found: inactive

Lookup: Can you handle Cc1c(C(=O)Nc2ccc(N3C[C@@H](C)O[C@@H](C)C3)nc2)cccc1-c1ccc(OC(F)(F)F)cc1 next?
Found: active

Lookup: Proceed to O=C(NCCCCN1CCOCC1)c1cc2ccccc2o1
Found: inactive

Lookup: Would you kindly repeat that for CC1COC2(CCN(c3nc(=O)c4cc(C(F)(F)F)cc([N+](=O)[O-])c4s3)CC2)O1 (stereo unspecified) ?
Found: inactive

Lookup: Next compound: Cc1cccc(-c2[nH]c(CNc3ccccc3F)nc2-c2ccc3ncnn3c2)n1
Found: inactive

Lookup: Same read-out for CCN1CCN(Cc2ccc(Nc3ncc(F)c(-c4cc(F)c5nc(C)n(C(C)C)c5c4)n3)nc2)CC1 ?
Found: active

Lookup: Now this one: COc1cc(OCc2cccc(-c3ccccc3)c2C)cc(OC)c1CN1CCCC[C@H]1C(=O)O
Found: active

Lookup: Now consider O=C(/C=C/c1cccnc1)NCCCCC1CCN(C(=O)c2ccccc2)CC1 and answer again.
Found: active

Lookup: Repeat for the following compound: NC1(c2ccc(-c3nc4ccn5c(=O)[nH]nc5c4cc3-c3ccccc3)cc2)CCC1
Found: active

Lookup: Entry CO[C@@H](C)Cn1c(=O)n(C)c2cnc3ccc(-c4cncc(C(C)(C)O)c4)cc3c21 please
Found: active

Lookup: Record: C#Cc1cccc(Nc2ncnc3cc(OC)c(OCCCCCCC(=O)NO)cc23)c1
Found: active

Lookup: Please answer likewise for COC1CCC(N2C(=O)CNc3ncc(-c4ccc(C(C)(C)O)nc4)nc32)CC1 (stereo unspecified)
Found: active

Lookup: Also CNC(=O)c1c(C)oc2cc(Oc3ncnc4cc(OC)c(OC)cc34)ccc12 , if possible.
Found: active

Lookup: Also COc1cc(=C2C=c3ccccc3=N2)[nH]/c1=C/c1[nH]c(C)cc1C , if possible.
Found: active

Lookup: Now try CC1(C)C(N(O)C(=O)Nc2ccc(Cl)cc2)N(c2ccc(Cl)cc2)C(=O)N1CC(=O)N/N=C/C=C/c1ccc([N+](=O)[O-])o1 (stereo unspecified) .
Found: active

Lookup: Then this compound: O=C(O)CNC(=O)c1ncc(-c2cccc(Cl)c2)cc1O
Found: inactive

Lookup: // next record Cc1ccc(-n2nc(C(C)(C)C)cc2NC(=O)NCc2cc(F)ccc2Oc2ccc3c(cnn3CCO)c2)cc1
Found: active

Lookup: Further, for COc1cc2ncnc(Nc3cccc(Br)c3)c2cc1OC ?
Found: active

Lookup: Thanks! And C=CC(=O)N1CCC[C@H](n2c(=O)n(-c3ccc(Oc4ccccc4)cc3)c3c(N)ncnc32)C1 ?
Found: active

Lookup: For CC(=O)c1c(C)c2cnc(Nc3ccc(N4CCNCC4)cn3)nc2n(C2CCCC2)c1=O then?
Found: active
